experiment: yeast display, Sf9 membrane polyspecificity reagent, FACS + sequencing; frameworks hold sequencing errors
Parameter Measured: polyreactivity (PSR sort gate)

Here's what some known entries look like.
{"columns": ["Seq", "Parameter Measured", "Result"],
 "data": [
  ["QVQQQESGGGLVQAGGILRMSCAASGTIFSEANMGSYRQAPGKERELVATIGQGSTTNYADSVKGRFTISRDNAKNTVYLQMNSLKPEETAVYYCAVVNVDPVGFVYWGQGTQVTVSS", "polyreactivity (PSR sort gate)", "low polyreactivity"],
  ["QVQLVESGGGLVQAGGSLRLSCAASGFISDVYAMGWSRQAPGKEREWVAVITWRGSTYYADSVKGRFTISRDNAKYTVYLQMNSLKPEDTAVYYCAAESQGDWAFDYWGQGTQVTVSS", "polyreactivity (PSR sort gate)", "low polyreactivity"],
  ["QVQLVESGGGLVQAGGSLRLSCAASGSTFAIYPMGWYRQAPGKETALVAAITRSGGNTYYADSVKGRFTISRDNAKNTVYLQMNSLKPEDTAVYYCNAETYYWSAYAQYDYWGQGTQVTVSS", "polyreactivity (PSR sort gate)", "high polyreactivity"],
  ["QVQLVESGGGLVQAGGSLRLSCAASGFTLKSYAMGWYRQAPGKERELVASISRRGGSTYYADSVKGRFTISRDNAKNTVYLQMNSLKPEDTAVYYCAADRSGSSDGVYWGQGTQVTLSS", "polyreactivity (PSR sort gate)", "high polyreactivity"]
]}

In the following, a different sequence is considered.
Would you kindly share the measured polyreactivity (PSR sort gate) for "QVQLVESGGGLVQAGGSLRLSCAASGRIFYVNAMGWYRQAPGKERELVAAIDVNDGITYYADSVKGRFTISRDNAKNTVYLQMNSLKPEDTAVYYCAAETLYWNDIIWDVEYWGQGTQVTVSS" ?
high polyreactivity
